Target: HIV Env of isolate Ce704809221_1B3 (clade C) (HIV)
Test: cell-based or functional assay
measured_attribute: IC50 (µg/ml) with constrains (µg/mL)

>>> quantitative_readout("PGDM1400 (antibody, V domains shown) VH: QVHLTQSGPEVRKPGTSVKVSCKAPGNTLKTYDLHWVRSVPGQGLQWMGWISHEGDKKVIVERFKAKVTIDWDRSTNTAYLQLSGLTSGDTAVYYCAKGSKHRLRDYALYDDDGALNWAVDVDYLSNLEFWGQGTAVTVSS VL: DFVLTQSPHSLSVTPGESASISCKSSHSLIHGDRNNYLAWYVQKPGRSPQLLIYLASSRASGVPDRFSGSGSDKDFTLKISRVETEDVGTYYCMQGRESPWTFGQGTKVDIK")
0.32
>>> quantitative_readout("ePGDM13 (antibody, V domains shown) VH: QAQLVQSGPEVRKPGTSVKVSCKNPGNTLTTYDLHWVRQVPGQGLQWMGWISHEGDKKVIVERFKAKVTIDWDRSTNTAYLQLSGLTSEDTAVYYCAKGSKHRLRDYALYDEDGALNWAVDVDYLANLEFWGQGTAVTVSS VL: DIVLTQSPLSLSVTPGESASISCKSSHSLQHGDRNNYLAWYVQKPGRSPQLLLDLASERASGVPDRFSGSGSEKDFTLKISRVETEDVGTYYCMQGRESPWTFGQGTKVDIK")
0.339
>>> quantitative_readout("ePGDM5 (antibody, V domains shown) VH: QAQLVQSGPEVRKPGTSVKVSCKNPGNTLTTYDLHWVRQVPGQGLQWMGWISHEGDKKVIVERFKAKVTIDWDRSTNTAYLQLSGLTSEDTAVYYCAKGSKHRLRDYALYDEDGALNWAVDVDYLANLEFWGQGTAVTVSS VL: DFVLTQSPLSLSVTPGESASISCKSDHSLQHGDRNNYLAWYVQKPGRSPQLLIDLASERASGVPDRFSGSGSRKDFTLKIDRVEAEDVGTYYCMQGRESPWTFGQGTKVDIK")
0.187
